- Tested on: 786-0 renal
- test.method.notes: NCI tumour cell line growth inhibition, 48 h
value.kind: GI50

Please review the entries below; each comes with its answer.
{"molecule": "CC1CCCc2c1nn(C(=O)/C=C(\\N)c1ccccc1)c2N (centres undefined)", "GI50": "16200 nM"}
{"molecule": "C=C(CN1CCc2ccccc2C1)c1ccc(C(=O)Nc2ccccc2N)cc1", "GI50": "1530 nM"}
{"molecule": "COc1ccc(/C=C2/CCc3cc4ccc(OC)cc4[o+]c32)c(O)c1", "GI50": "3970 nM"}

Read the next record carefully.
Query: Find GI50 (786-0 renal) for the entry Cn1cc(-c2csc(-c3cn(C)c4ccccc34)n2)c2cnccc21
Result: 1950 nM

---

- Test system: DU-145 prostate
- test.method.notes: NCI tumour cell line growth inhibition, 48 h
Use t when the recorded TGI is no lower than 20 µM; use f when it is lower.

Worked cases, answers included:
{"compound": "COc1ccc(C#CC(=O)O)c(OC)c1", "system.under.test": "DU-145 prostate", "assigned.label": "t"}
{"compound": "Cc1ccccc1C(O)(c1nccn1C)c1nccn1C", "system.under.test": "DU-145 prostate", "assigned.label": "t"}
{"compound": "CN(C)C(=S)S", "system.under.test": "DU-145 prostate", "assigned.label": "t"}
{"compound": "O=C1c2cc3c(cc2CC1Br)CCC3 (centres undefined)", "system.under.test": "DU-145 prostate", "assigned.label": "t"}
{"compound": "C=C(CN1CCc2ccccc2C1)c1ccc(C(=O)Nc2ccccc2N)cc1", "system.under.test": "DU-145 prostate", "assigned.label": "f"}

Query: Quick check, TGI >= 20 µM? c1ccc2sc(SCSc3nc4ccccc4s3)nc2c1
Result: t

Query: Quick check, TGI >= 20 µM? C[C@H]1[C@H](C)CC[C@]2(C(=O)NCCNCCN)CC[C@]3(C)C(=CC[C@@H]4[C@@]5(C)CCC(=O)C(C)(C)[C@@H]5CC[C@]43C)[C@H]12
Result: f

Query: Quick check, TGI >= 20 µM? Cn1c(/C(C#N)=C/c2ccc3ccccc3c2)cc2ccccc21
Result: t

Query: Quick check, TGI >= 20 µM? CO[C@]12CC(=O)C3(C(C[C@H]4CC5CC=C6C[C@@H](OC(C)=O)CC[C@]6(OC(C)=O)C5C[C@@]43C)C1)C1C[C@H]3[C@@H]4CC=C5C[C@@H](OC(C)=O)CC[C@]5(OC(C)=O)[C@H]4CC[C@]3(C)C12 (some centres undefined)
Result: t

Query: Quick check, TGI >= 20 µM? O=C(NCCCN(CCCCN(CCCNC(=O)C(F)(F)F)Cc1ccccc1)Cc1ccccc1)C(F)(F)F
Result: t

Query: Quick check, TGI >= 20 µM? COc1cc(C2CC(C)(Nc3ccccc3)Oc3cc4c(cc32)OCO4)cc(OC)c1OC (centres undefined)
Result: f

Query: Quick check, TGI >= 20 µM? COc1ccc2cc3c4cc5c(cc4cc[n+]3cc2c1OC)OCO5
Result: t

Query: Quick check, TGI >= 20 µM? C/C=C/C=C/c1nc(C#N)c(N)o1
Result: t

Query: Quick check, TGI >= 20 µM? Cc1cc2c(Br)cc(Br)c(O)c2nc1C(=O)c1ccccc1
Result: t

---

In this section, each of the compounds is paired with its reported TGI.
- System: T-47D breast
- test.method.notes: NCI tumour cell line growth inhibition, 48 h

Please review the entries below; each comes with its answer.
{"compound": "Cc1c2c(n(CCc3ccc(Cl)cc3)c1C)NN=C(C#N)S2(=O)=O", "TGI": "> 100 µM"}
{"compound": "OC(c1ccc(Br)cc1)(c1cccs1)C1CC1 (stereo unspecified)", "TGI": "88.5 µM"}

Query: Please report the recorded TGI for OC(CN1CC1)C(O)CN1CC1 (stereo unspecified) .
Result: > 50 µg/mL

Query: Please report the recorded TGI for CC(O)C1CC1(CO)CNc1cc(Cl)nc(N)n1 (stereo unspecified) .
Result: > 100 µM

Query: Please report the recorded TGI for COc1cc2c(cc1-c1c(C)noc1C)cc(C)c(=O)n2Cc1ccccn1 .
Result: > 100 µM

Query: Please report the recorded TGI for COc1ccc(CC(C)C(C)Cc2ccc(OC)c(OC)c2)cc1OC (stereo unspecified) .
Result: > 1400 µM

Query: Please report the recorded TGI for O=C(O)CCC(NC(=S)S)C(=O)O.[Na+].[Zn+2] (stereo unspecified) .
Result: > 50 µM

Query: Please report the recorded TGI for CN(C)c1nc(=NCc2ccccc2)ss1 .
Result: > 10 µM

---

In this section, each of the molecules is paired with its reported TGI.
- Test system: MDA-MB-231 breast
- test.method.notes: NCI tumour cell line growth inhibition, 48 h
Give the value, in units of µM, as a plain number.

{"molecule": "C=CCO/N=C/c1cc(NC(=S)c2ccoc2C)ccc1Cl", "readout.number": 30.1}
{"molecule": "COc1cc(C2CC(C)(Nc3ccccc3)Oc3cc4c(cc32)OCO4)cc(OC)c1OC (stereo unspecified)", "readout.number": 4.34}

Read the next record carefully.
Query: Please report the recorded TGI for CC[C@H]1CN2CCc3cc(OC)c(OC)cc3[C@@H]2C[C@@H]1C[C@H]1NCCc2cc(OC)c(OC)cc21 .
Result: 0.0458

---

- Tested on: NCI-H23 lung
- test.method.notes: NCI tumour cell line growth inhibition, 48 h
value.kind: TGI (µM)
Give the value, in units of µM, as a plain number.

Please review the entries below; each comes with its answer.
{"compound": "CC(C)c1ccccc1NC(=O)/C(Cl)=C1/Sc2ccccc2NC1=O", "value.kind": "TGI", "units.text": "µM", "readout.number": 70.8}
{"compound": "CN(C)Cc1c[nH]c2c(NCCN)c3c(c(NCCN)c12)C(=O)c1ccccc1C3=O", "value.kind": "TGI", "units.text": "µM", "readout.number": 8.99}
{"compound": "Cc1nnc(N/N=C(/C(=O)C(C#N)c2ccccc2)C(C#N)c2ccccc2)n1N (stereo unspecified)", "value.kind": "TGI", "units.text": "µM", "readout.number": 17.8}
{"compound": "CCC(=C(c1ccc(OCCCN(C)C)cc1)c1ccc(OCCCN(C)C)cc1)c1ccc(Cl)cc1", "value.kind": "TGI", "units.text": "µM", "readout.number": 4.98}
{"compound": "O=C1C(SCCO)=C(SCCO)C(=O)c2ccccc21", "value.kind": "TGI", "units.text": "µM", "readout.number": 2.44}
{"compound": "CCCNC(=O)CCC(C)[C@H]1CCC2C3C(C[C@H](OC(C)=O)[C@@]21C)[C@@]1(C)CCC2(C[C@H]1C[C@H]3OC(C)=O)OOC1(CCC(C)CC1)OO2 (stereo partly specified)", "value.kind": "TGI", "units.text": "µM", "readout.number": 18.7}

Query: Please report the recorded TGI for O=C/C(=C(/Cl)c1ccc(O)cc1)c1ccccc1 .
Result: 55.1

Query: Please report the recorded TGI for O=P(c1ccccc1)(c1ccccc1)N1O[C@@H](c2ccccc2)C=C[C@H]1c1ccccc1 .
Result: 25.2

Query: Please report the recorded TGI for C(=N\NC1=NCCCN1)/c1ccc2ccccc2c1 .
Result: 36.6

---

- Tested on: SNB-19 CNS
- test.method.notes: NCI tumour cell line growth inhibition, 48 h; in the data active means GI50 below about 0.43 µM; inactive means the rest
Hello, when you answer, please use one of the following outcomes: label 1 (active), label 0 (inactive)

Worked cases, answers included:
{"molecule": "O=C(c1ccc2ccccc2c1)c1c(C(F)(F)F)n([O-])c2ccc(Cl)cc2[n+]1=O", "assigned.label": "label 0"}
{"molecule": "COc1ccc(CC(C)C(C)Cc2ccc(OC)c(OC)c2)cc1OC (stereo not drawn)", "assigned.label": "label 0"}
{"molecule": "C=C1CC2(OC1=O)C(=O)N(CCCN1C(=O)C3(CC(=C)C(=O)O3)c3ccccc31)c1ccccc12 (stereo not drawn)", "assigned.label": "label 0"}
{"molecule": "CCCCCCCCCCN=C(c1ccc(N(C)C)cc1)c1ccc(N(C)C)cc1", "assigned.label": "label 0"}
{"molecule": "Cn1cc(-c2csc(-c3cn(C)c4ccccc34)n2)c2cnccc21", "assigned.label": "label 0"}

Query: Outcome? Cc1ccc2nc3c(Cl)c(C)c(=O)cc-3sc2c1
Result: label 0

Query: Outcome? Cn1c2ccccc2c2c(=O)c3ccccc3[nH]c21
Result: label 0

Query: Outcome? COc1ccc(/C=C2/CCc3cc4ccc(OC)cc4[o+]c32)c(O)c1
Result: label 0

Query: Outcome? CN(C)Cc1c[nH]c2c(NCCN)c3c(c(NCCN)c12)C(=O)c1ccccc1C3=O
Result: label 0

Query: Outcome? Cn1c(/C(C#N)=C/c2ccc3ccccc3c2)cc2ccccc21
Result: label 1

Query: Outcome? COc1ccc2cc(-c3ccc(-c4ccc(C(=N)N)s4)s3)ccc2c1
Result: label 0

Query: Outcome? C=C(CN1CCc2ccccc2C1)c1ccc(C(=O)Nc2ccccc2N)cc1
Result: label 0

Query: Outcome? COc1cc([N+](=O)[O-])c(OC)cc1-c1nc2sc(Cl)cn2c1/C=N/Nc1ccccn1
Result: label 0
